- test method notes: clinical
- test settings: human, plasma, other: dialysis with a dialysis fluid containing acetic acid, Measured value, Enzyme method, blood plasma of individual dialysis patients treated with acetic acid-containing dialysis fluid; dialysis time 4 hr
reported property: concentration at 4 h (µM)
# output: bare number, implied unit µM

query: Entry `CC(=O)O` needs its concentration at 4 h filled in; supply it.
result: 1680

----------
- test method notes: clinical
- test settings: human, plasma, other: dialysis with a dialysis fluid containing acetic acid, Measured value, GC/MS method, blood plasma of individual dialysis patients treated with acetic acid-containing dialysis fluid; dialysis time 4 hr
reported property: concentration at 4 h (µM)
# output: bare number, implied unit µM

query: Entry `CC(=O)O` needs its concentration at 4 h filled in; supply it.
result: 1790
